Reference source for all entries: patent US6242437A

# Tested on: M. morganii 1510/S-1
# test protocol: Minimum inhibitory concentration, two-fold dilution method
# Type: cell-based
# experimental conditions: Morganella morganii, 1510/S1, 10^6 CFU/ml, 35° C., 18 to 20 hr
# Procedure: The antibacterial activity of the compounds according to the present invention was assayed in terms of the minimum inhibitory concentration, for various bacteria, measured by the conventional two-fold dilution method described in, for example, CHEMOTHERAPY, Vol. 29, No. 1, 76-79 (1981). […]
Answer each item with its documented MIC.
Answers are plain numbers, in µg/mL.

molecule="CO/N=C(\\C(=O)N[C@@H]1C(=O)N2C(C(=O)[O-])=C(C[n+]3ccn4ncccc43)CS[C@H]12)c1nsc(N)n1 [Control 1, Cefozopran, reference compound]" value_measured=0.1

Turning now to a further record.
Request: Look up and report measured MIC for this entry: CO/N=C(\C(=O)N[C@@H]1C(=O)N2C(C(=O)[O-])=C(C[n+]3cc4sccn4c3CNS(N)(=O)=O)CS[C@H]12)c1nsc(N)n1
Response: 0.05

---

# System: K. pneumoniae PCI602
property measured: MIC (µg/mL)
One number for each entry, in µg/mL.

compound="CO/N=C(\\C(=O)N[C@@H]1C(=O)N2C(C(=O)[O-])=C(C[n+]3cccc4c3CCC4)CS[C@H]12)c1csc(N)n1 [Control 2, Cefpirome, reference compound]" target_or_system="K. pneumoniae PCI602" property_measured=MIC value_measured=0.05

Please state, for each entry, its recorded MIC.
1. CO/N=C(\C(=O)N[C@@H]1C(=O)N2C(C(=O)[O-])=C(C[n+]3cc4sccn4c3CNS(N)(=O)=O)CS[C@H]12)c1nsc(N)n1 [Ex. 5]
2. CO/N=C(\C(=O)N[C@@H]1C(=O)N2C(C(=O)[O-])=C(C[n+]3ccn4ncccc43)CS[C@H]12)c1nsc(N)n1 [Control 1, Cefozopran, reference compound]

Response:
1: 0.05; 2: 0.1

---

# System: S. aureus 126
# test protocol: Minimum inhibitory concentration, two-fold dilution method
# Format: cell-based
# experimental conditions: Staphylococcus aureus; S. aureus 126, methicilline-resistant (MRSA); 10^6 CFU/ml, 35° C., 18 to 20 hr
Answer each item with its documented MIC.
Numbers only, in µg/mL.

compound="CO/N=C(\\C(=O)N[C@@H]1C(=O)N2C(C(=O)[O-])=C(C[n+]3cccc4c3CCC4)CS[C@H]12)c1csc(N)n1 [Control 2, Cefpirome, reference compound]" value_measured=50

Please state, for each entry, its recorded MIC.
1. CO/N=C(\C(=O)N[C@@H]1C(=O)N2C(C(=O)[O-])=C(C[n+]3ccn4ncccc43)CS[C@H]12)c1nsc(N)n1 [Control 1, Cefozopran, reference compound]
2. Nc1nc(/C(=N/OCF)C(=O)N[C@@H]2C(=O)N3C(C(=O)[O-])=C(C[n+]4cc5sccn5c4CNS(N)(=O)=O)CS[C@H]23)ns1
3. CO/N=C(\C(=O)N[C@@H]1C(=O)N2C(C(=O)[O-])=C(C[n+]3cc4sccn4c3CNS(N)(=O)=O)CS[C@H]12)c1nsc(N)n1

Response:
50
6.25
6.25

---

# Tested on: S. aureus 209P JC-1
# test protocol: Minimum inhibitory concentration, two-fold dilution method
# Type: cell-based
# experimental conditions: Staphylococcus aureus, 10^6 CFU/ml, 35° C., 18 to 20 hr
Answer each item with its documented MIC.
One number for each entry, in µg/mL.

molecule="CO/N=C(\\C(=O)N[C@@H]1C(=O)N2C(C(=O)[O-])=C(C[n+]3ccn4ncccc43)CS[C@H]12)c1nsc(N)n1 [Control 1, Cefozopran, reference compound]" value_measured=0.39

Please state, for each entry, its recorded MIC.
1. CO/N=C(\C(=O)N[C@@H]1C(=O)N2C(C(=O)[O-])=C(C[n+]3cccc4c3CCC4)CS[C@H]12)c1csc(N)n1 [Control 2, Cefpirome, reference compound]
2. Nc1nc(/C(=N/OCF)C(=O)N[C@@H]2C(=O)N3C(C(=O)[O-])=C(C[n+]4cc5sccn5c4CNS(N)(=O)=O)CS[C@H]23)ns1
3. CO/N=C(\C(=O)N[C@@H]1C(=O)N2C(C(=O)[O-])=C(C[n+]3cc4sccn4c3CNS(N)(=O)=O)CS[C@H]12)c1nsc(N)n1

Response:
0.2
0.78
0.78
